B1: HDV Ribozyme (parent)
chain: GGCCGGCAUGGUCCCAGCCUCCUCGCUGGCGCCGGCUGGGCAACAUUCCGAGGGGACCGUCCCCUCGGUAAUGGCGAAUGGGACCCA

- Variants of: B1
- test-description: self-cleavage, relative activity (ratio to wild type); higher = more cleavage; co-transcriptional
measured-endpoint: self-cleavage
Format: numeric value only, no unit, no commentary.

- variant-string: "G2A C4U"
  measured: 0.163
- variant-string: "C14G G82U"
  measured: 0.196
- variant-string: "G76C A83C"
  measured: 0.201
- variant-string: "G35C A83U"
  measured: 0.0898
- variant-string: "G5U U23G"
  measured: 0

Exam item: Fill blank: measured self-cleavage of the variant G39U G68C is ____.
Marked response: 0.532

Exam item: Fill blank: measured self-cleavage of the variant G5A C24U is ____.
Marked response: 0

Exam item: Fill blank: measured self-cleavage of the variant U12A G80C is ____.
Marked response: 0.0852

Exam item: Fill blank: measured self-cleavage of the variant G11A G53U is ____.
Marked response: 0.588

Exam item: Fill blank: measured self-cleavage of the variant U9A G17C is ____.
Marked response: 0.297

Exam item: Fill blank: measured self-cleavage of the variant U72C C75U is ____.
Marked response: 0.192

Exam item: Fill blank: measured self-cleavage of the variant C41A C48A is ____.
Marked response: 0.982

Exam item: Fill blank: measured self-cleavage of the variant G73A C85A is ____.
Marked response: 0.882

Exam item: Fill blank: measured self-cleavage of the variant U23A C58U is ____.
Marked response: 1.25

Exam item: Fill blank: measured self-cleavage of the variant C24A A87C is ____.
Marked response: 0.645

Exam item: Fill blank: measured self-cleavage of the variant G2C C32G is ____.
Marked response: 0.0554

Data origin, for the record: the RNAGym collection of RNA variant scans (doi:10.7554/elife.80360)
